Where these numbers come from: patent US11639350B2

Test system: HBV
assay summary: HBV inhibitory activity: HBV DNA in the culture medium of HepG2.2.15 cells by q-PCR
Format: cell-based
stated conditions: HepG2.2.15 cells, 6 days of compound treatment, HBV DNA in culture medium by q-PCR, highest concentration 10 μM; read-out: EC50
endpoint name: pEC50
Answers are plain numbers, as −log10 of the molar value.

Guide cases for pEC50, answers given:
COC(=O)C1=C(C2CCN(S(=O)(=O)CC3(C)CCC(C(=O)O)CC3)CC2)NC(c2nccs2)=NC1c1ccc(F)cc1Cl (single isomer, unassigned) [Compound 450A]    7.77
COC(=O)C1=C(C23CC(N(C[C@@H](O)CO)S(C)(=O)=O)(C2)C3)NC(c2nccs2)=NC1c1ccc(F)cc1Cl (single isomer, unassigned) [Compound 376D]    7.46
COC(=O)C1=C(C2CCN(S(N)(=O)=O)CC2)NC(c2nccs2)=NC1c1ccc(F)c(F)c1Cl (stereo not drawn) [Compound 416B]    8.22
COC(=O)C1=C(C2CCC(NC(C)=O)C2)NC(c2nccs2)=NC1c1cccc(F)c1Cl (single isomer, unassigned) [Compound 62D]    6.05

Dear colleague, could you please provide pEC50 for the molecules listed below?
1. COC(=O)C1=C(C2CCC(NC(C)=O)C2)NC(c2nccs2)=NC1c1cccc(F)c1Cl (single isomer, unassigned) [Compound 62G]
2. COC(=O)C1=C(C2CCOC2)NC(c2nccs2)=NC1c1cccc(F)c1Cl (single isomer, unassigned) [Compound 74D]

1: 6.92; 2: 6.52
